# System: E. coli OC2605
# assay-notes: MIC, microdilution broth method (NCCLS)
# Type: cell-based
# reported-conditions: A: E. coli OC2605, 35° C., 16-20 hours
parameter-measured: MIC (µg/mL)

| molecule | reported-result |
| --- | --- |
| CC[C@H]1OC(=O)[C@H](C)C(=O)[C@H](C)[C@@H](O[C@@H]2O[C@H](C)C[C@H](N(C)C)[C@H]2O)[C@](C)(OC(=O)NC/C=C/c2ccc(-c3ncccn3)cc2F)C[C@@H](C)C(=O)[C@H](C)[C@H]2NC(=O)O[C@@]21C [Compound 88] | 16 |
| CC[C@H]1OC(=O)[C@H](C)C(=O)[C@H](C)[C@@H](O[C@@H]2O[C@H](C)C[C@H](N(C)C)[C@H]2O)[C@](C)(OC(=O)NCc2cccc(-c3ccccn3)c2)C[C@@H](C)C(=O)[C@H](C)[C@H]2NC(=O)O[C@@]21C [Compound 37] | 16 |

I. CCC1OC(=O)C(C)(F)C(=O)C(C)C(OC2OC(C)CC(N(C)C)C2O)C(C)(OC(=O)NCC=Cc2ccccc2)CC(C)C(=NO)C(C)C2NC(=O)OC12C (centres unmarked) [Compound 129]
II. CC[C@H]1OC(=O)[C@H](C)C(=O)[C@H](C)[C@@H](O[C@@H]2O[C@H](C)C[C@H](N(C)C)[C@H]2O)[C@](C)(OC(=O)NCc2ccc(-c3cnccn3)cc2)C[C@@H](C)C(=O)[C@H](C)[C@H]2NC(=O)O[C@@]21C [Compound 76]
**Query** Compare MIC: is it lower for I or for II ? Response format: the label of the selected entry.
**Result** I

###

# Tested on: H. influenzae ATCC49247
# assay-notes: MIC, microdilution broth method (NCCLS)
# Assay type: cell-based
# reported-conditions: E: H. influenzae ATCC49247, 35° C., 16-20 hours
parameter-measured: MIC (µg/mL)

Past entries and their recorded results:
| compound | assay-target | MIC (µg/mL) |
| --- | --- | --- |
| CCC1OC(=O)C(C)(F)C(=O)C(C)C(OC2OC(C)CC(N(C)C)C2O)C(C)(OC(=O)NCC=Cc2cnc3ccccc3c2)CC(C)C(=NO)C(C)C2NC(=O)OC12C (stereo not shown) | H. influenzae ATCC49247 | 2 |
| CC[C@H]1OC(=O)[C@H](C)C(=O)[C@H](C)[C@@H](O[C@@H]2O[C@H](C)C[C@H](N(C)C)[C@H]2O)[C@](C)(OC(=O)NCCNC(=O)c2ccc(-c3ccccc3)cc2)C[C@@H](C)C(=O)[C@H](C)[C@H]2NC(=O)O[C@@]21C | H. influenzae ATCC49247 | 4 |

A. CC[C@H]1OC(=O)[C@H](C)C(=O)[C@H](C)[C@@H](O[C@@H]2O[C@H](C)C[C@H](N(C)C)[C@H]2O)[C@](C)(OC(=O)NC/C=C/c2ccc(-n3cccn3)nc2)C[C@@H](C)C(=O)[C@H](C)[C@H]2NC(=O)O[C@@]21C
B. CC[C@H]1OC(=O)[C@H](C)C(=O)[C@H](C)[C@@H](O[C@@H]2O[C@H](C)C[C@H](N(C)C)[C@H]2O)[C@](C)(OC(=O)NC/C=C/c2ccc3nccnc3c2)C[C@@H](C)C(=O)[C@H](C)[C@H]2NC(=O)O[C@@]21C
**Query** When A and B are compared, which has the higher number for MIC? Return value: the label identifying the chosen record.
**Result** A
